Provenance of the data: paper PMC9037210

Below: a set of entries, each annotated with reported pKi.
# experimental.target: hCA IX (Homo sapiens)
# Construct: made in house
# method.summary: stopped-flow CO2 hydrase assay, hCA IX
# Assay type: biochemical
# experimental.context: stopped-flow, incubation time of 6 h, mean of three assays; read-out: KI CA IX
pKi: −log10 of the molar value.

compound | pKi
Cc1nc(-c2cc3ccccc3oc2=O)ccc1C(=O)/C=C/c1ccccn1 [Compound 5l] | 5.42
Cc1nc(-c2cc3ccccc3oc2=O)ccc1C(=O)/C=C/c1cccc2ccccc12 [Compound 5k] | 4.43
Cc1ccc(/C=C/C(=O)c2ccc(-c3cc4ccccc4oc3=O)nc2C)o1 [Compound 5n] | 5.82
Cc1nc(-c2cc3ccccc3oc2=O)ccc1C(=O)/C=C/c1ccc(Cl)cc1 [Compound 5c] | 5.24
Cc1nc(-c2cc3ccccc3oc2=O)ccc1C(=O)/C=C/c1ccc([N+](=O)[O-])cc1 [Compound 5e] | 4.79
COc1cc(/C=C/C(=O)c2ccc(-c3cc4ccccc4oc3=O)nc2C)cc(OC)c1OC [Compound 5i] | 4.56
COc1ccc(/C=C/C(=O)c2ccc(-c3cc4ccccc4oc3=O)nc2C)cc1 [Compound 5h] | 4.97
CC(=O)c1ccc(-c2cc3ccccc3oc2=O)nc1C [Compound 3] | 6.02
